Molecular target: PDGFRA (Homo sapiens)
Sequence (P16234 24-1089): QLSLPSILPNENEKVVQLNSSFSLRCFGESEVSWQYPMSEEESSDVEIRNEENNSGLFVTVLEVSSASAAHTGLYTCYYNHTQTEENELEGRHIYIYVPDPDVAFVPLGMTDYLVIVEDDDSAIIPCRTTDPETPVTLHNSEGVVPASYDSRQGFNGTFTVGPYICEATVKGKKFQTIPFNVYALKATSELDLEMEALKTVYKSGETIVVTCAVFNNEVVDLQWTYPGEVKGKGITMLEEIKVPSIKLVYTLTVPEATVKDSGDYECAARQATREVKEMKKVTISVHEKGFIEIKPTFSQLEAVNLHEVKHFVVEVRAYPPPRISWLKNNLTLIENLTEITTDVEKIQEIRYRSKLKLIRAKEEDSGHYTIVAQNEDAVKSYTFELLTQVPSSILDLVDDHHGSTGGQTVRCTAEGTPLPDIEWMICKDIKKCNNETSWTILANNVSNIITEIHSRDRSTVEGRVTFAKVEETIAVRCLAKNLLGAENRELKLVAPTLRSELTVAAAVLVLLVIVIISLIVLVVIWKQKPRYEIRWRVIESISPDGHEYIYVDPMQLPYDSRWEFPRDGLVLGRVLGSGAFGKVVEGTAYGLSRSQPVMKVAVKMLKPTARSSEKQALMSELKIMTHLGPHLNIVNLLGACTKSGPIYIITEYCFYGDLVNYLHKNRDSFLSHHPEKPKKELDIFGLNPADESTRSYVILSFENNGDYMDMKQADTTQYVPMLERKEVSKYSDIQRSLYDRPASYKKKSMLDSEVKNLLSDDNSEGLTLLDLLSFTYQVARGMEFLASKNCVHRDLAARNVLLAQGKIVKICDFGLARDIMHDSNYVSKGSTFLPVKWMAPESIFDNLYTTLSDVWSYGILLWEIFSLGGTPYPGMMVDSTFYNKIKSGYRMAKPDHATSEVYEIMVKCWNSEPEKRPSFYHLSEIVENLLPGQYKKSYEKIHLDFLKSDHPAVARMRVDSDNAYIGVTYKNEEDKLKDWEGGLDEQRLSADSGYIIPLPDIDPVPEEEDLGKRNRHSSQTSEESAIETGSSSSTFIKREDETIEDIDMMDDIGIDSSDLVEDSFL
Experiment: Kinase profiling (radiometric filter-binding)
Format: biochemical
Details: 1 µM inhibitor, read-out: Residual activity, %
Square brackets hold non-standard residues; d marks the D form. Peptide text beside a SMILES is read from it. * marks the point of attachment. X3 = O=C(CCCCCNCc1nc2c(sc3cc(Br)cnc32)c(=O)[nH]1)*

COMPOUND | UNIT ABBREVIATION | remaining activity at 1 µM
N=C(N)NCCC[C@@H](NC(=O)CNC(=O)[C@@H](CCCNC(=N)N)NC(=O)[C@@H](CCCNC(=N)N)NC(=O)Cn1cc(CNCc2nc3c(sc4ccc(Br)cc43)c(=O)[nH]2)nn1)C(=O)N[C@H](CCCCN)C(N)=O [Compound 3, BBTP-Amt-(D-Arg)2-Gly-D-Arg-D-Lys-NH2] | % | 108
N=C(N)NCCC[C@@H](NC(=O)CCCCCNCc1nc2c(sc3cc(Br)cnc32)c(=O)[nH]1)C(=O)N[C@H](CCCNC(=N)N)C(=O)N[C@H](CCCNC(=N)N)C(=O)N[C@H](CCCNC(=N)N)C(=O)N[C@H](CCCNC(=N)N)C(=O)N[C@H](CCCNC(=N)N)C(=O)N[C@H](CCCCN)C(N)=O [ARC-3126, BPTP-Ahx-(D-Arg)6-D-Lys-NH2] (X3-[dR][dR][dR][dR][dR][dR][dK]-NH2) | % | 116
N=C(N)NCCC[C@@H](NC(=O)CCCCCNC(=O)Cn1cnc2c(I)c(I)c(I)c(I)c21)C(=O)N[C@H](CCCNC(=N)N)C(=O)N[C@H](CCCNC(=N)N)C(=O)N[C@H](CCCNC(=N)N)C(=O)N[C@H](CCCNC(=N)N)C(=O)N[C@H](CCCNC(=N)N)C(=O)N[C@H](CCCCN)C(N)=O [ARC-3125, TIBI-CH2-C(=O)-Ahx-(D-Arg)6-D-Lys-NH2] | % | 97

* * *

Target: SGK1 (Homo sapiens)
Sequence (O00141 1-431): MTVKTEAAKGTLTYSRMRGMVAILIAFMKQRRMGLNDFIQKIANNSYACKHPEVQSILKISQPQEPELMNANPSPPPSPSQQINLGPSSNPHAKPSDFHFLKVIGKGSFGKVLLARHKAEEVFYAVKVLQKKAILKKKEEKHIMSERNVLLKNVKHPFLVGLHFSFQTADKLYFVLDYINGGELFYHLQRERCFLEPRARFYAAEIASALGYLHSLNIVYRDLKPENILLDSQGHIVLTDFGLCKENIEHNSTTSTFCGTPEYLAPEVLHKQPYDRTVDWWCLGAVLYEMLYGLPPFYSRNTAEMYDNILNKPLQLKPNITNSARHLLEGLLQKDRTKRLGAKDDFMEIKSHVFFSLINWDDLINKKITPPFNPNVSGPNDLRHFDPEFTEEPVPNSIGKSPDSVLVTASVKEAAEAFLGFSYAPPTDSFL
Assay: Kinase profiling (radiometric filter-binding)
Assay type: biochemical
Conditions: SGK1, 1 µM inhibitor; read-out: Residual activity, %
Square brackets hold non-standard residues; d marks the D form. Peptide text beside a SMILES is read from it. * marks the point of attachment. X3 = O=C(CCCCCNCc1nc2c(sc3cc(Br)cnc32)c(=O)[nH]1)*
Reported remaining activity at 1 µM is given for each of the following compounds.
VALUE TYPE: remaining activity at 1 µM (%)

COMPOUND | UNIT ABBREVIATION | VALUE REPORTED
N=C(N)NCCC[C@@H](NC(=O)CNC(=O)[C@@H](CCCNC(=N)N)NC(=O)[C@@H](CCCNC(=N)N)NC(=O)CCCCCCCNCc1nc2c(sc3cc(Br)cnc32)c(=O)[nH]1)C(=O)N[C@H](CCCCN)C(N)=O [Compound 1, BPTP-Aoc-(D-Arg)2-Gly-D-Arg-D-Lys-NH2] | % | 110
N=C(N)NCCC[C@@H](NC(=O)CCCCCNCc1nc2c(sc3cc(Br)cnc32)c(=O)[nH]1)C(=O)N[C@H](CCCNC(=N)N)C(=O)N[C@H](CCCNC(=N)N)C(=O)N[C@H](CCCNC(=N)N)C(=O)N[C@H](CCCNC(=N)N)C(=O)N[C@H](CCCNC(=N)N)C(=O)N[C@H](CCCCN)C(N)=O [ARC-3126, BPTP-Ahx-(D-Arg)6-D-Lys-NH2] (X3-[dR][dR][dR][dR][dR][dR][dK]-NH2) | % | 75
N=C(N)NCCC[C@@H](NC(=O)CNC(=O)[C@@H](CCCNC(=N)N)NC(=O)[C@@H](CCCNC(=N)N)NC(=O)CCCCCCCNCc1nc2c(sc3ccc(Br)cc32)c(=O)[nH]1)C(=O)N[C@H](CCCCN)C(N)=O [Compound 2, BBTP-Aoc-(D-Arg)2-Gly-D-Arg-D-Lys-NH2] | % | 89
N=C(N)NCCC[C@@H](NC(=O)CCCCCNC(=O)Cn1cnc2c(I)c(I)c(I)c(I)c21)C(=O)N[C@H](CCCNC(=N)N)C(=O)N[C@H](CCCNC(=N)N)C(=O)N[C@H](CCCNC(=N)N)C(=O)N[C@H](CCCNC(=N)N)C(=O)N[C@H](CCCNC(=N)N)C(=O)N[C@H](CCCCN)C(N)=O [ARC-3125, TIBI-CH2-C(=O)-Ahx-(D-Arg)6-D-Lys-NH2] | % | 9
N=C(N)NCCC[C@@H](NC(=O)CNC(=O)[C@@H](CCCNC(=N)N)NC(=O)[C@@H](CCCNC(=N)N)NC(=O)Cn1cc(CNCc2nc3c(sc4ccc(Br)cc43)c(=O)[nH]2)nn1)C(=O)N[C@H](CCCCN)C(N)=O [Compound 3, BBTP-Amt-(D-Arg)2-Gly-D-Arg-D-Lys-NH2] | % | 95

* * *

Molecular target: SmMLCK (Homo sapiens)
Sequence (Q15746 923-1914): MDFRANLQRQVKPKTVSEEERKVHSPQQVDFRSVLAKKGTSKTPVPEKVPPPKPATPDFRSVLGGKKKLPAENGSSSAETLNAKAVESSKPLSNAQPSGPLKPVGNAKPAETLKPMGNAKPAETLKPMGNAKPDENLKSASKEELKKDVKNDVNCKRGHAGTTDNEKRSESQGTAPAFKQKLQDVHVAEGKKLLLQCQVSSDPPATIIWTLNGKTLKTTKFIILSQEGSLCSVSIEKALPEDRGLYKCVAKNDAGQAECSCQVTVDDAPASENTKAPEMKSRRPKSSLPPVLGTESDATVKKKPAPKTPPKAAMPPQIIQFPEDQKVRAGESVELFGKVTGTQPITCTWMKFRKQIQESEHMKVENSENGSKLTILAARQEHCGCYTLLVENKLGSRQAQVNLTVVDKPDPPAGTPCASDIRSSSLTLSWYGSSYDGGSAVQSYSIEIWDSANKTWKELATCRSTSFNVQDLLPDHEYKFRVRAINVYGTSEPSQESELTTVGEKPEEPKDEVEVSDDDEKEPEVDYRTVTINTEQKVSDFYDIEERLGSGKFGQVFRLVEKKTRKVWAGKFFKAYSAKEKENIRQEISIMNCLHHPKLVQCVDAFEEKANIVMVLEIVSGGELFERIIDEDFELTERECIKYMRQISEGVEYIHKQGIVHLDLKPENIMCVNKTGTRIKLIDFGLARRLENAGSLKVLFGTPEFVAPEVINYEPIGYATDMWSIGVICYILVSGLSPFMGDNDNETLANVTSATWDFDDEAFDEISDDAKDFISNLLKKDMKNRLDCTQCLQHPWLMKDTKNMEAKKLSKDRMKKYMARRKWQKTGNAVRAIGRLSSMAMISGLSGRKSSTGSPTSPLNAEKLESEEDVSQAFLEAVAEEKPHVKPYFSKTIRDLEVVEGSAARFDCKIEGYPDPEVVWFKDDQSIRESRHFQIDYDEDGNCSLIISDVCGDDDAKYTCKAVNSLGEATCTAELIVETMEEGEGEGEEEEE
Test: Kinase profiling (radiometric filter-binding)
Type: biochemical
Settings: 1 µM inhibitor, read-out: Residual activity, %
Square brackets hold non-standard residues; d marks the D form. Peptide text beside a SMILES is read from it. * marks the point of attachment. X3 = O=C(CCCCCNCc1nc2c(sc3cc(Br)cnc32)c(=O)[nH]1)*

MOLECULE | remaining activity at 1 µM [%]
N=C(N)NCCC[C@@H](NC(=O)CCCCCNCc1nc2c(sc3cc(Br)cnc32)c(=O)[nH]1)C(=O)N[C@H](CCCNC(=N)N)C(=O)N[C@H](CCCNC(=N)N)C(=O)N[C@H](CCCNC(=N)N)C(=O)N[C@H](CCCNC(=N)N)C(=O)N[C@H](CCCNC(=N)N)C(=O)N[C@H](CCCCN)C(N)=O [ARC-3126, BPTP-Ahx-(D-Arg)6-D-Lys-NH2] (X3-[dR][dR][dR][dR][dR][dR][dK]-NH2) | 116
N=C(N)NCCC[C@@H](NC(=O)CNC(=O)[C@@H](CCCNC(=N)N)NC(=O)[C@@H](CCCNC(=N)N)NC(=O)Cn1cc(CNCc2nc3c(sc4ccc(Br)cc43)c(=O)[nH]2)nn1)C(=O)N[C@H](CCCCN)C(N)=O [Compound 3, BBTP-Amt-(D-Arg)2-Gly-D-Arg-D-Lys-NH2] | 94
N=C(N)NCCC[C@@H](NC(=O)CNC(=O)[C@@H](CCCNC(=N)N)NC(=O)[C@@H](CCCNC(=N)N)NC(=O)CCCCCCCNCc1nc2c(sc3ccc(Br)cc32)c(=O)[nH]1)C(=O)N[C@H](CCCCN)C(N)=O [Compound 2, BBTP-Aoc-(D-Arg)2-Gly-D-Arg-D-Lys-NH2] | 98
N=C(N)NCCC[C@@H](NC(=O)CCCCCNC(=O)Cn1cnc2c(I)c(I)c(I)c(I)c21)C(=O)N[C@H](CCCNC(=N)N)C(=O)N[C@H](CCCNC(=N)N)C(=O)N[C@H](CCCNC(=N)N)C(=O)N[C@H](CCCNC(=N)N)C(=O)N[C@H](CCCNC(=N)N)C(=O)N[C@H](CCCCN)C(N)=O [ARC-3125, TIBI-CH2-C(=O)-Ahx-(D-Arg)6-D-Lys-NH2] | 66
N=C(N)NCCC[C@@H](NC(=O)CNC(=O)[C@@H](CCCNC(=N)N)NC(=O)[C@@H](CCCNC(=N)N)NC(=O)CCCCCCCNCc1nc2c(sc3cc(Br)cnc32)c(=O)[nH]1)C(=O)N[C@H](CCCCN)C(N)=O [Compound 1, BPTP-Aoc-(D-Arg)2-Gly-D-Arg-D-Lys-NH2] | 98

* * *

Biological target: OSR1 (Homo sapiens, UniProt O95747)
Sequence (O95747 whole entry): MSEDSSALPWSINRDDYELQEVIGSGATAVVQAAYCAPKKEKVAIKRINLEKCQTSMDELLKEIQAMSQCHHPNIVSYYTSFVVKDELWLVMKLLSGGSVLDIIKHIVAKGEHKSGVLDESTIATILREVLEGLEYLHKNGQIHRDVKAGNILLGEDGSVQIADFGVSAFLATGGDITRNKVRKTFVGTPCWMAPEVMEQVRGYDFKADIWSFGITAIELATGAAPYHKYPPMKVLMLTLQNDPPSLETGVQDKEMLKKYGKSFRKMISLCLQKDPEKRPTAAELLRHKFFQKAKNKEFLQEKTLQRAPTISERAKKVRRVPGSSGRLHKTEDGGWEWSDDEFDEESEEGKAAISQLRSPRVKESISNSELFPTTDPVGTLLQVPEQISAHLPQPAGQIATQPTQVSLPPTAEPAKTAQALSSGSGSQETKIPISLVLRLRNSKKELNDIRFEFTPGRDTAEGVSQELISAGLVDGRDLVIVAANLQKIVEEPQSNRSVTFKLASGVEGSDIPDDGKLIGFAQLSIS
Assay: Kinase profiling (radiometric filter-binding)
Format: biochemical
Conditions: OSR1, 1 µM inhibitor; read-out: Residual activity, %
Square brackets hold non-standard residues; d marks the D form. Peptide text beside a SMILES is read from it. * marks the point of attachment. X3 = O=C(CCCCCNCc1nc2c(sc3cc(Br)cnc32)c(=O)[nH]1)*

COMPOUND | UNIT ABBREVIATION | remaining activity at 1 µM
N=C(N)NCCC[C@@H](NC(=O)CCCCCNC(=O)Cn1cnc2c(I)c(I)c(I)c(I)c21)C(=O)N[C@H](CCCNC(=N)N)C(=O)N[C@H](CCCNC(=N)N)C(=O)N[C@H](CCCNC(=N)N)C(=O)N[C@H](CCCNC(=N)N)C(=O)N[C@H](CCCNC(=N)N)C(=O)N[C@H](CCCCN)C(N)=O | % | 73
N=C(N)NCCC[C@@H](NC(=O)CNC(=O)[C@@H](CCCNC(=N)N)NC(=O)[C@@H](CCCNC(=N)N)NC(=O)CCCCCCCNCc1nc2c(sc3cc(Br)cnc32)c(=O)[nH]1)C(=O)N[C@H](CCCCN)C(N)=O | % | 114
N=C(N)NCCC[C@@H](NC(=O)CNC(=O)[C@@H](CCCNC(=N)N)NC(=O)[C@@H](CCCNC(=N)N)NC(=O)CCCCCCCNCc1nc2c(sc3ccc(Br)cc32)c(=O)[nH]1)C(=O)N[C@H](CCCCN)C(N)=O | % | 114
N=C(N)NCCC[C@@H](NC(=O)CNC(=O)[C@@H](CCCNC(=N)N)NC(=O)[C@@H](CCCNC(=N)N)NC(=O)Cn1cc(CNCc2nc3c(sc4ccc(Br)cc43)c(=O)[nH]2)nn1)C(=O)N[C@H](CCCCN)C(N)=O | % | 107
N=C(N)NCCC[C@@H](NC(=O)CCCCCNCc1nc2c(sc3cc(Br)cnc32)c(=O)[nH]1)C(=O)N[C@H](CCCNC(=N)N)C(=O)N[C@H](CCCNC(=N)N)C(=O)N[C@H](CCCNC(=N)N)C(=O)N[C@H](CCCNC(=N)N)C(=O)N[C@H](CCCNC(=N)N)C(=O)N[C@H](CCCCN)C(N)=O [ARC-3126, BPTP-Ahx-(D-Arg)6-D-Lys-NH2] (X3-[dR][dR][dR][dR][dR][dR][dK]-NH2) | % | 116
